Where do the numbers come from? From patent US4880807A.

- test.name: oral toxicity in mice (LD50, mortality over 14 days)
- study.conditions: mouse, in vivo, po, LD50, oral (esophageal tube), male mice, groups of 10 to 20, 14 days; Table II
assay.readout: LD50 at 336 h

Worked cases, LD50 at 336 h given:
| compound.structure | LD50 at 336 h |
| --- | --- |
| O=C(c1cccnc1)N1CCN(c2ccccc2)CC1 | > 1000 mg/kg |
| COc1cccc(N2CCN(C(=O)c3cccnc3)CC2)c1 | > 1000 mg/kg |
| CCOc1cccc(N2CCN(C(=O)c3cccnc3)CC2)c1 | 540 mg/kg |
| O=C(c1cccnc1)N1CCN(c2ccc(F)cc2)CC1 | 600 mg/kg |

Give its LD50 at 336 h value. Item: `O=C(c1cccnc1)N1CCN(c2cccc(C(F)(F)F)c2)CC1`
422 mg/kg

I am curious: what LD50 at 336 h value has been reported for `Cc1cccc(N2CCN(C(=O)c3cccnc3)CC2)c1C` ?
> 1000 mg/kg

---

- test.name: oral toxicity in mice (LD50, mortality over 14 days)
- study.conditions: mouse, in vivo, po, LD50, oral (esophageal tube), male mice, groups of 10 to 20, 14 days; Table II
assay.readout: LD50 at 336 h

These recorded examples may help you get a feel for the data.
| compound.structure | observed |
| --- | --- |
| O=C(c1cccnc1)N1CCN(c2ccc(C(F)(F)F)cc2)CC1 | > 1000 mg/kg |
| O=C(c1cccnc1)N1CCN(c2ccccc2C(F)(F)F)CC1 | > 1000 mg/kg |

// switching to the query compound
Reported LD50 at 336 h, compound `Cl.Cl.O=C(c1cccnc1)N1CCN(c2cccc(C(F)(F)F)c2)CC1` : ____
575 mg/kg

---

- Tested on: convulsions induced by supra maximal electroshock (MCE)
- test.name: animal or person
- study.conditions: LD50 per os/ED50 per os, MCE convulsions
Below, each entry is listed alongside its reported Therapeutic index MCE (LD50/ED50).
The response must contain the number and no unit.

// worked examples, Therapeutic index MCE (LD50/ED50) included
| molecule | tested.system | Therapeutic index MCE (LD50/ED50) |
| --- | --- | --- |
| O=C(c1cccnc1)N1CCN(c2cccc(C(F)(F)F)c2)CC1 | convulsions induced by supra maximal electroshock (MCE) | 21.1 |
| O=C(c1cccnc1)N1CCN(c2ccccc2F)CC1 | convulsions induced by supra maximal electroshock (MCE) | 5.6 |
| Cl.Cl.O=C(c1cccnc1)N1CCN(c2cccc(C(F)(F)F)c2)CC1 | convulsions induced by supra maximal electroshock (MCE) | 30.2 |
| CN1C(=O)OC(C)(C)C1=O [TRIM, trimethadione, reference compound] | convulsions induced by supra maximal electroshock (MCE) | 4.4 |
| Cc1ccccc1N1CCN(C(=O)c2cccnc2)CC1 | convulsions induced by supra maximal electroshock (MCE) | 5.0 |
| CCOc1cccc(N2CCN(C(=O)c3cccnc3)CC2)c1 [Ex. 19] | convulsions induced by supra maximal electroshock (MCE) | 6.7 |
| CCOc1cccc(N2CCN(C(=O)c3cccnc3)CC2)c1 [Ex. 18] | convulsions induced by supra maximal electroshock (MCE) | 4.6 |
| CCCC(CCC)C(=O)[O-].[Na+] [VALP, sodium valproate, reference compound] | convulsions induced by supra maximal electroshock (MCE) | 4.0 |

Let us move to another entry and its Therapeutic index MCE (LD50/ED50).
What value of Therapeutic index MCE (LD50/ED50) has been recorded for this entry: Cc1cc(Cl)ccc1N1CCN(C(=O)c2cccnc2)CC1 [Ex. 22]
6.2
